Parameter pIC50, tested on Epidermal growth factor receptor (Homo sapiens, UniProt P00533, C797S/L858R/T790M), listed per item.
Sequence (P00533 25-1210 T790M/C797S/L858R limits assumed): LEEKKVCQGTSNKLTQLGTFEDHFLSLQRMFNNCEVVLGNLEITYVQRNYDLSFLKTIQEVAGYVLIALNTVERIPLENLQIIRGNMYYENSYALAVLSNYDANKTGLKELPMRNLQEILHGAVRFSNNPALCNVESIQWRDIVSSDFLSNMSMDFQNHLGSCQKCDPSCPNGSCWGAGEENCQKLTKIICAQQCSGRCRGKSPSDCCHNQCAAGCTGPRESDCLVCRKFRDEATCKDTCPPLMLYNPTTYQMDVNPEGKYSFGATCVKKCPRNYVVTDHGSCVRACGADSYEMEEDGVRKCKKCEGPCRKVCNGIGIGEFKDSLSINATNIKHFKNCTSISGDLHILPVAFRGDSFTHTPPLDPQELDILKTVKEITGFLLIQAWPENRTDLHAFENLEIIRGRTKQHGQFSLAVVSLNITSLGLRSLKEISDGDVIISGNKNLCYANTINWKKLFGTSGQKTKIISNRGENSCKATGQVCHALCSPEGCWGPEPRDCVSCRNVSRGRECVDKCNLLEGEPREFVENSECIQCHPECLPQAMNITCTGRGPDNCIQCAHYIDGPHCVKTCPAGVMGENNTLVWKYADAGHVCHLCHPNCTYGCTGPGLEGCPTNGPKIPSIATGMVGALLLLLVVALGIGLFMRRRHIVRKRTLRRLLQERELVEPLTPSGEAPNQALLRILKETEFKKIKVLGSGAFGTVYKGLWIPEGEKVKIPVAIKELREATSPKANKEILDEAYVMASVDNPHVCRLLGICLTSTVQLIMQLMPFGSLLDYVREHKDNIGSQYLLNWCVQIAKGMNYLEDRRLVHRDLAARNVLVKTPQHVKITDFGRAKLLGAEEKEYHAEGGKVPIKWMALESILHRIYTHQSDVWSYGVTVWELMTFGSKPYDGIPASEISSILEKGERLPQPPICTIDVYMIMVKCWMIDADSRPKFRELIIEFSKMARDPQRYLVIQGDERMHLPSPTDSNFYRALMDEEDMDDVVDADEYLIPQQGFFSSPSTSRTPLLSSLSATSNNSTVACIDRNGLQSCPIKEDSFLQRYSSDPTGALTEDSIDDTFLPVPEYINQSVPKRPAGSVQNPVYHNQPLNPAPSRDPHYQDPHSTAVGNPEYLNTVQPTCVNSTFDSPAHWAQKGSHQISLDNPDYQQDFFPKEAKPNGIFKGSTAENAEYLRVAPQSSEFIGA
pIC50: −log10 of the molar value.
attribute.measured: pIC50

Some molecules with recorded pIC50:
molecule | pIC50
O=C(Nc1nccs1)C(c1ncn2c1C[C@@H](F)C2)n1cc2c(Cl)cc(-c3ccc(N4CCOCC4)cc3)c(Cl)c2n1 (mixture of isomers) | 8.22
O=C(Nc1nccs1)C(c1ncn2c1CCC2)N1Cc2c(F)cc(C#Cc3ccc(CN4CCC(O)CC4)cc3)cc2C1=O (configuration not stated) | 8.30
Cc1c(-c2ccc(N3CCOCC3)cc2)cc(C(F)F)c2cn(C(C(=O)Nc3nccs3)c3ncn4c3CCC43CC3)nc12 (configuration not stated) | 8.00

1: O=C(Nc1nccs1)C(c1ncn2c1CCC2)N1Cc2ccccc2C1=O (configuration not stated)
2: O=C(Nc1nccs1)C(c1ncn2c1CCC2)N1Cc2c(F)cc(C#Cc3cccnc3)cc2C1=O (configuration not stated)
3: Cc1c(C#Cc2ccc(CN3CCC(CO)CC3)cc2)cc(C(F)F)c2cn(C(C(=O)Nc3nccs3)c3ncn4c3CCC43CC3)nc12 (configuration not stated)
4: O=C(Nc1nccs1)C(c1ncn2c1CCC2)N1Cc2c(Cl)cccc2C1=O (configuration not stated)
List by increasing pIC50. Rank them, then answer with their labels in that order.
1, 2, 4, 3

---

test: Cmax in CD1 mouse at 10 mg/kg, po administered as single dose measured after 24 hrs by LC-MS/MS analysis; format: ADME, organism-based; parameters: dose 10 mg/kg, time 24 hrs, route po; conditions: in vivo
attribute.measured: Cmax (ng/mL)
Numbers only; they are read as ng/mL.

What value of Cmax has been reported for the following molecule? Cc1c(C#Cc2ccc(CN3CCC(CO)CC3)cc2)cc(C(F)F)c2cn(C(C(=O)Nc3nccs3)c3ncn4c3CCC43CC3)nc12 (stereo unspecified)
135

---

Parameter pIC50, tested on Epidermal growth factor receptor (Homo sapiens, UniProt P00533, C797S/L858R/T790M), listed per item.
pIC50: −log10 of the molar value.
attribute.measured: pIC50

compound | pIC50
O=C(Nc1nccs1)C(c1ncn2c1CCC2)N1Cc2c(F)cc(C#Cc3ccc(CN4CCCCC4)cc3)cc2C1=O (stereo not drawn) | 8.15
O=C(Nc1nccs1)C(c1ncn2c1CCC2)N1Cc2ccc(C#Cc3cccnc3)cc2C1=O (stereo not drawn) | 6.34
Nc1ccc(C#Cc2cc(F)c3c(c2)C(=O)N(C(C(=O)Nc2nccs2)c2ncn4c2CCC4)C3)cn1 (stereo not drawn) | 6.94
O=C(Nc1nccs1)C(c1ncn2c1CCC2)n1cc2c(F)cc(C#Cc3ccc(CN4CCC(O)CC4)cc3)cc2n1 (stereo not drawn) | 8.22
Cc1c(C#Cc2ccc(CN3CCC(CO)CC3)cc2)cc(C(F)F)c2cn(C(C(=O)Nc3nccs3)c3ncn4c3CCC4)nc12 (stereo not drawn) | 8.52

A: CC1(C)CCc2c(C(C(=O)Nc3nccs3)N3Cc4c(cc(C#Cc5ccc(CN6CCC(CO)CC6)cc5)cc4C(F)F)C3=O)ncn21 (stereo not drawn)
B: O=C(Nc1nccs1)C(c1ncn2c1C[C@@H](F)C2)n1cc2c(Cl)cc(-c3ccc(N4CCN(C5CC5)CC4)cc3)c(Cl)c2n1 (mixture of isomers)
C: O=C(Nc1nccs1)C(c1cc[nH]n1)N1Cc2ccccc2C1=O (stereo not drawn)
Sort by pIC50, descending. Rank them, then answer with their labels in that order.
A, B, C
(A: 8.40, B: 7.77, C: 6.03)

---

test: AUC (0 to infinity) in CD1 mouse at 1 mg/kg, iv administered as single dose measured after 24 hrs by LC-MS/MS analysis; assay type: ADME, organism-based; set-up: time 24 hrs, dose 1 mg/kg, route iv; conditions: in vivo
attribute.measured: AUC(0-inf) (ng·h/mL)
Numbers only; they are read as ng·h/mL.

What value of AUC(0-inf) has been reported for the following compound? Cc1c(C#Cc2ccc(CN3CCC(CO)CC3)cc2)cc(C(F)F)c2cn(C(C(=O)Nc3nccs3)c3ncn4c3CCC43CC3)nc12 (stereo unspecified)
871

---

Listed below: pIC50 values for each entry.
system: BaF3; experiment: Cytotoxicity against mouse BaF3 cells expressing EGFR L858R/T790M/C797S mutant assessed as reduction in cell viability measured after 72 hrs by cell titre glo luminescence assay; format: functional, cell-based; conditions: BaF3, 72 h
Scale: negative log10 of molar concentration, which is what pIC50 denotes.

Some compounds with recorded pIC50:
compound | measurement
O=C(Nc1nccs1)C(c1ncn2c1CCC2)N1Cc2c(F)cc(C#Cc3ccc(CN4CCC(O)CC4)cc3)cc2C1=O (configuration not stated) | 8.30
Cc1c(C#Cc2ccc(CN3CCC(CO)CC3)cc2)cc(C(F)F)c2cn(C(C(=O)Nc3nccs3)c3ncn4c3CCC43CC3)nc12 (configuration not stated) | 9.00
O=C(Nc1nccs1)C(c1ncn2c1CCC2)n1cc2c(F)cc(C#Cc3ccc(CN4CCC(O)CC4)cc3)cc2n1 (configuration not stated) | 8.05
CCN1CCN(c2ccc(-c3cc(Cl)c4cn(C(C(=O)Nc5nccs5)c5ncn6c5C[C@@H](F)C6)nc4c3Cl)cc2)CC1 (mixture of isomers) | 8.10
O=C(Nc1nccs1)C(c1ncn2c1CCC2)N1Cc2ccc(C#Cc3ccc(CN4CCC(O)CC4)cc3)cc2C1=O (configuration not stated) | 8.00

What value of pIC50 has been reported for the following compound? O=C(Nc1nccs1)C(c1ncn2c1CCC2)N1Cc2c(F)cc(C#Cc3ccc(CN4CCCCC4)cc3)cc2C1=O (configuration not stated)
8.00

What value of pIC50 has been reported for the following compound? O=C(Nc1nccs1)C(c1cc(F)ccc1O)N1Cc2ccc(-c3ccc(N4CCNCC4)cc3)cc2C1=O (configuration not stated)
7.52

---

Parameter pIC50, tested on Epidermal growth factor receptor (Homo sapiens, UniProt P00533, C797S/L858R/T790M), listed per item.
pIC50: −log10 of the molar value.
attribute.measured: pIC50

Some compounds with recorded pIC50:
compound | pIC50
CCN1CCN(c2ccc(-c3cc(F)c4cn(C(C(=O)Nc5nccs5)c5ncn6c5CCC6)nc4c3)cc2)CC1 (stereo not drawn) | 8.15
O=C(Nc1nccs1)C(c1ncn2c1CCC2)N1Cc2c(cc(C#Cc3ccc(CN4CCC(CO)CC4)cc3)cc2C(F)(F)F)C1=O (stereo not drawn) | 8.52
O=C(Nc1nccs1)C(c1n[nH]c2c1CCC2)N1Cc2ccccc2C1=O (stereo not drawn) | 7.64
O=C(Nc1nccs1)C(c1ncn2c1CCC2)N1Cc2ccc(C#Cc3ccc(CN4CCC(O)CC4)cc3)cc2C1=O (stereo not drawn) | 8.15
O=C(Nc1nccs1)C(c1ncn2c1CCC2)N1Cc2ccc(C#Cc3ccc(CN4CCCCC4)cc3)cc2C1=O (stereo not drawn) | 7.80

A: O=C(Nc1nccs1)C(c1ncn2c1CCC2)N1Cc2c(cc(C#Cc3ccc(CN4CCC(CO)CC4)cc3)cc2C(F)F)C1=O (stereo not drawn)
B: Cc1c(-c2ccc(N3CCOCC3)cc2)cc(C(F)F)c2cn(C(C(=O)Nc3nccs3)c3ncn4c3C[C@@H](F)C4)nc12 (mixture of isomers)
Select one. Lower pIC50: A or B // return label of chosen record
B

---

test: Terminal half life in CD1 mouse at 1 mg/kg, iv administered as single dose measured after 24 hrs by LC-MS/MS analysis; type: ADME, organism-based; details: in vivo, read-out: beta t1/2 (converted)
attribute.measured: half-life (h)
Numbers only; they are read as h.

What value of half-life has been reported for the following molecule? Cc1c(C#Cc2ccc(CN3CCC(CO)CC3)cc2)cc(C(F)F)c2cn(C(C(=O)Nc3nccs3)c3ncn4c3CCC43CC3)nc12 (stereo unspecified)
6.6

---

Parameter IC50, tested on Epidermal growth factor receptor (Homo sapiens, UniProt P00533, C797S/L858R), listed per item.
Sequence (P00533 25-1210 C797S/L858R limits assumed): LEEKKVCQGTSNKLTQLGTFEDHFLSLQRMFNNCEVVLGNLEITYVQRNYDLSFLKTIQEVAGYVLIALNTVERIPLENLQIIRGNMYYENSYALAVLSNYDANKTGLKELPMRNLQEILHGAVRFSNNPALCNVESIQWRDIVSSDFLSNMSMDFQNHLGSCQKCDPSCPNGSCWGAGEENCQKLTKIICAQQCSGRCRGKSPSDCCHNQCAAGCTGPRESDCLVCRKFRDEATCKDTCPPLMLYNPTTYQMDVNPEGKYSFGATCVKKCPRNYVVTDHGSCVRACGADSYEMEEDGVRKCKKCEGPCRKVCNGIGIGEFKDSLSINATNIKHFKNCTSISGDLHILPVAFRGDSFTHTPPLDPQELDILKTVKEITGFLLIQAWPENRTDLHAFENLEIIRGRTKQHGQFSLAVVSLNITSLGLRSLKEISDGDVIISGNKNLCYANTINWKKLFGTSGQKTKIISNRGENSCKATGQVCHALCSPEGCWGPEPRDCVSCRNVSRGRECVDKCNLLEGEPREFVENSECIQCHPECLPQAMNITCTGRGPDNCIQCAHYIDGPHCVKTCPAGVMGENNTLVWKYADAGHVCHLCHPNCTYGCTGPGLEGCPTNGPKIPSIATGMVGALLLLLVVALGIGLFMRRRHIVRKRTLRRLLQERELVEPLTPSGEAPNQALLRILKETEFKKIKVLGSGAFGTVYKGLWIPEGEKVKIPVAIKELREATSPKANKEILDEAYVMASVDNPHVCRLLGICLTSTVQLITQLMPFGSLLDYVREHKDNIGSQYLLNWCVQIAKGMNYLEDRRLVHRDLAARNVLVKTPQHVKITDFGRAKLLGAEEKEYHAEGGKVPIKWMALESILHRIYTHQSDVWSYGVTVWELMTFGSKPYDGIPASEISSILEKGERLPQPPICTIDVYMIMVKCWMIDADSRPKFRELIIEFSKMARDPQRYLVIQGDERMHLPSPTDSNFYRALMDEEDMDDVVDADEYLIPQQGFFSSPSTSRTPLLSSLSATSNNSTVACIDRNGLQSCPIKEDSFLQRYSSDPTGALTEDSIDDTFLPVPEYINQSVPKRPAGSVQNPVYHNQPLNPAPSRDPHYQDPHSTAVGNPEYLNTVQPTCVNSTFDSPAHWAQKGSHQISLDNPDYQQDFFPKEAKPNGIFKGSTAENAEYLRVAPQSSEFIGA
attribute.measured: IC50 (µM)

Some molecules with recorded IC50:
molecule | IC50, µM
CC1(C)CCc2c(C(C(=O)Nc3nccs3)N3Cc4c(cc(C#Cc5ccc(CN6CCC(CO)CC6)cc5)cc4C(F)F)C3=O)ncn21 (centres undefined) | 0.012
O=C(Nc1nccs1)C(c1ncn2c1CCC2)N1Cc2c(F)cc(C#Cc3cccnc3)cc2C1=O (centres undefined) | 0.129

P: O=C(Nc1nccs1)C(c1ncn2c1CCC2)N1Cc2ccc(C#Cc3ccc(CN4CCCCC4)cc3)cc2C1=O (centres undefined)
Q: O=C(Nc1nccs1)C(c1ncn2c1CCC2)N1Cc2ccccc2C1=O (centres undefined)
Select one. Lower IC50: P or Q // return label of chosen record
P
(P: 0.342 µM, Q: 1.7 µM)

---

tested on: BaF3; assay: Cytotoxicity against mouse BaF3 cells harboring EGFR L858R/C797S mutant assessed as reduction in cell viability measured after 72 hrs by cell titre glo luminescence assay; assay type: functional, cell-based; details: BaF3, time 72 hrs
Listed below: IC90 values for each entry.

Some compounds with recorded IC90:
compound | target.or.test.system | IC90
O=C(Nc1nccs1)C(c1ncn2c1CCC2)N1Cc2ccc(C#Cc3ccccc3)cc2C1=O (stereo not drawn) | BaF3 | > 10 µM
O=C(Nc1nccs1)C(c1ncn2c1CCC2)N1Cc2ccc(C#Cc3cccnc3)cc2C1=O (stereo not drawn) | BaF3 | > 10 µM

Below: the item to evaluate.
What value of IC90 has been reported for the following compound? Nc1ccc(C#Cc2cc(F)c3c(c2)C(=O)N(C(C(=O)Nc2nccs2)c2ncn4c2CCC4)C3)cn1 (stereo not drawn)
> 10 µM
